Biological target: FLT3 (ITD) (Homo sapiens)
Sequence (P36888 1-993): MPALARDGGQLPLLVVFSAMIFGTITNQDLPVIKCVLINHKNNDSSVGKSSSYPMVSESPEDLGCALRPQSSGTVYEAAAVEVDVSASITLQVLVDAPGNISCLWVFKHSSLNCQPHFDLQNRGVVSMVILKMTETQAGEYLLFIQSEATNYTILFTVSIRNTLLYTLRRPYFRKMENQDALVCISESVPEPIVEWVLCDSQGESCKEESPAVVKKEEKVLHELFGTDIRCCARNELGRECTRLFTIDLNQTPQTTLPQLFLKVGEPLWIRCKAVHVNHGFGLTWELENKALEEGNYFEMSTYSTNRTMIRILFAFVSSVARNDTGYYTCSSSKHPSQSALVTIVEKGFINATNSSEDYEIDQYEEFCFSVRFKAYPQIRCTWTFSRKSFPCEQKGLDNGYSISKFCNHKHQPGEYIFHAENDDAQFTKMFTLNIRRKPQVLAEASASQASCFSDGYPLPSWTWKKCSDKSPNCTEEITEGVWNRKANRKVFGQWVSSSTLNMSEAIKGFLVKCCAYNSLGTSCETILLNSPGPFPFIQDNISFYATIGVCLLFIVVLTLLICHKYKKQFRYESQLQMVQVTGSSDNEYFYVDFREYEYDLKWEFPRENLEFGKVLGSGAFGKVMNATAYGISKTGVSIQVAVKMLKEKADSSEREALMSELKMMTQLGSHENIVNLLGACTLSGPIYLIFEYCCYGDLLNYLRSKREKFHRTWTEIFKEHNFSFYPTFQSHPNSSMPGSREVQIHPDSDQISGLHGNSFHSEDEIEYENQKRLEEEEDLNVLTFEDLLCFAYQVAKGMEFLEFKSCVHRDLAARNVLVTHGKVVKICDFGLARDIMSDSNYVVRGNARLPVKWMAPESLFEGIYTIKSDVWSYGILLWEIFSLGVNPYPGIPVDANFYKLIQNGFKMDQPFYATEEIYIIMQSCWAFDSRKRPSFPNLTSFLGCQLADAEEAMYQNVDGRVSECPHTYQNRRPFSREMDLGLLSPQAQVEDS
Experiment: In vitro kinase assay, recombinant FLT3 (ITD)
Conditions: 33P-ATP, 120 min
pIC50: −log10 of the molar value.
property_label: pIC50

[I] CNCCO/N=C1/C(=C2/C(=O)Nc3ccc(Br)cc32)Nc2ccccc21 [5IN-1NH1s]
[II] O=C1Nc2ccc(Br)cc2C1=C1Nc2ccccc2C1=NOCCN1CCNCC1 [Compound (1289)]
### Prompt Pick the one with the larger pIC50: I vs II API: response body contains the label of the selected item.
### Response II
(II: 9.25, I: 8.96)

###

Biological target: FLT3 (Homo sapiens, UniProt P36888)
Sequence (P36888 27-993): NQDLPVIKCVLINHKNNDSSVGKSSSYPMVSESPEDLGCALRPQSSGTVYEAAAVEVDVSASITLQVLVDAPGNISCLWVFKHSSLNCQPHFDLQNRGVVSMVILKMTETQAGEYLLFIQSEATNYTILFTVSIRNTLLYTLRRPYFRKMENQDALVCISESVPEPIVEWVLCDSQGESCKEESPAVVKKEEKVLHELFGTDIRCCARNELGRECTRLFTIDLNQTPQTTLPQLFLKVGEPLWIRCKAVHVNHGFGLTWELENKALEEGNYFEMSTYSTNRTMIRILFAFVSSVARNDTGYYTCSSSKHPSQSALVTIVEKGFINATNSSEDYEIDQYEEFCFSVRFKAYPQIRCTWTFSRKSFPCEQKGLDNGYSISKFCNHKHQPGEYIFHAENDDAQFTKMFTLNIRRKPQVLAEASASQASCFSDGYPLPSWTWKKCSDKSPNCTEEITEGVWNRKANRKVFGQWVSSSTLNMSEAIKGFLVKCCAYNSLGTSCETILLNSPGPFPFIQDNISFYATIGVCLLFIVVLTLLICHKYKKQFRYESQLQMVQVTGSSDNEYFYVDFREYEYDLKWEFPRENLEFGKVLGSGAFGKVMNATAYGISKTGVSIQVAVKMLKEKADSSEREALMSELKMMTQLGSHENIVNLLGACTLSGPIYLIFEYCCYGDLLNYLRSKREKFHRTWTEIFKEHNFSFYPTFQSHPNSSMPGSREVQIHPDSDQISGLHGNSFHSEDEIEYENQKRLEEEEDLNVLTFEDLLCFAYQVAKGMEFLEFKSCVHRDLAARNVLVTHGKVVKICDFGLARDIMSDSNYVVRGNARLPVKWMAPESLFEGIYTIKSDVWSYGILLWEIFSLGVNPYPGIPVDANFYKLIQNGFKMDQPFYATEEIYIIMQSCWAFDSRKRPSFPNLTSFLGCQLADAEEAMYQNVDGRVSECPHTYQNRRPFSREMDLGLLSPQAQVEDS
Test: In vitro kinase assay, recombinant FLT3
Conditions: recombinant FLT3, 33P-ATP, 120 min
property_label: IC50 (nM)

[1] CNCCO/N=C1/C(=C2/C(=O)Nc3ccc(Br)cc32)Nc2ccccc21
[2] O=C1Nc2ccc(Br)cc2C1=C1Nc2ccccc2C1=NOCCN1CCNCC1
### Prompt Which is greater in IC50, the first item 1 or the second item 2 ? Your answer should be the label of the entry you select.
### Response 1
(1: 1.39 nM, 2: 0.68 nM)
